Test system: carrageenan-induced toe swelling in SD rats
Assay: Carrageenan-induced acute toe swelling in rats
Assay type: in vivo, rat
Parameters: unit not given here
Settings: 20 mg/kg once a day for 3 days; 5 h after carrageenan
Where no end group is shown, it is not given here.
Quantity: Swelling

- Substance: "mPEG-ALD5k-Arg-Gly-Ala-Asp-Arg-Ala-Gly-Gly-Gly-Gly-Arg-Gly-Asp ({mPEG‑ALD 5 kDa}-RGADRAGGGGRGD) [mPEG-ALD5k-HM-1]"
  Result: "0.37 ± 0.11"
- Substance: "mPEG-ALD10k-Arg-Gly-Ala-Asp-Arg-Ala-Gly-Gly-Gly-Gly-Arg-Gly-Asp ({mPEG‑ALD 10 kDa}-RGADRAGGGGRGD) [mPEG-ALD10k-HM-1]"
  Result: "0.42 ± 0.15"
- Substance: "mPEG2-NHS5k-Arg-Gly-Ala-Asp-Arg-Ala-Gly-Gly-Gly-Gly-Arg-Gly-Asp ({mPEG2‑NHS 5 kDa}-RGADRAGGGGRGD) [mPEG2-NHS5k-HM-1]"
  Result: "0.36 ± 0.12"

* * *

Test system: retinal neovascular clusters in OIR C57/B16 mice
Test: Retinal blood vessels in OIR mice
Assay type: in vivo, mouse
Settings: 200 μg intravitreal injection on day 13; retina evaluated on day 17
Where no end group is shown, it is not given here.

- Substance: "mPEG-ALD40k-Arg-Gly-Ala-Asp-Arg-Ala-Gly-Gly-Gly-Gly-Arg-Gly-Asp ({mPEG‑ALD 40 kDa}-RGADRAGGGGRGD) [mPEG-ALD40k-HM-1]"
  Neovascular clusters area [mm^2]: 0.106
- Substance: "mPEG2-NHS40k-Arg-Gly-Ala-Asp-Arg-Ala-Gly-Gly-Gly-Gly-Arg-Gly-Asp ({mPEG2‑NHS 40 kDa}-RGADRAGGGGRGD) [mPEG2-NHS40k-HM-1]"
  Neovascular clusters area [mm^2]: 0.120
- Substance: "mPEG-SC40k-Arg-Gly-Ala-Asp-Arg-Ala-Gly-Gly-Gly-Gly-Arg-Gly-Asp ({mPEG‑SC 40 kDa}-RGADRAGGGGRGD) [mPEG-SC40k-HM-1]"
  Neovascular clusters area [mm^2]: 0.119
- Substance: "mPEG-bALD40k-Arg-Gly-Ala-Asp-Arg-Ala-Gly-Gly-Gly-Gly-Arg-Gly-Asp ({mPEG‑bALD 40 kDa}-RGADRAGGGGRGD) [mPEG-bALD40k-HM-1]"
  Neovascular clusters area [mm^2]: 0.110

* * *

System: carrageenan-induced toe swelling in SD rats
Experiment: Carrageenan-induced acute toe swelling in rats
Type: in vivo, rat
Set-up: unit not given here
Settings: 40 mg/kg once a day for 3 days; 5 h after carrageenan
Where no end group is shown, it is not given here.
Quantity: Swelling

- Substance: "mPEG-SC20k-Arg-Gly-Ala-Asp-Arg-Ala-Gly-Gly-Gly-Gly-Arg-Gly-Asp ({mPEG‑SC 20 kDa}-RGADRAGGGGRGD) [mPEG-SC20k-HM-1]"
  Subject of test: "carrageenan-induced toe swelling in SD rats"
  Result: 0.42
- Substance: "mPEG2-NHS10k-Arg-Gly-Ala-Asp-Arg-Ala-Gly-Gly-Gly-Gly-Arg-Gly-Asp ({mPEG2‑NHS 10 kDa}-RGADRAGGGGRGD) [mPEG2-NHS10k-HM-1]"
  Subject of test: "carrageenan-induced toe swelling in SD rats"
  Result: 0.35
- Substance: "mPEG2-NHS20k-Arg-Gly-Ala-Asp-Arg-Ala-Gly-Gly-Gly-Gly-Arg-Gly-Asp ({mPEG2‑NHS 20 kDa}-RGADRAGGGGRGD) [mPEG2-NHS20k-HM-1]"
  Subject of test: "carrageenan-induced toe swelling in SD rats"
  Result: 0.43
- Substance: "mPEG-ALD20k-Arg-Gly-Ala-Asp-Arg-Ala-Gly-Gly-Gly-Gly-Arg-Gly-Asp ({mPEG‑ALD 20 kDa}-RGADRAGGGGRGD) [mPEG-ALD20k-HM-1]"
  Subject of test: "carrageenan-induced toe swelling in SD rats"
  Result: 0.41
- Substance: "mPEG-bALD20k-Arg-Gly-Ala-Asp-Arg-Ala-Gly-Gly-Gly-Gly-Arg-Gly-Asp ({mPEG‑bALD 20 kDa}-RGADRAGGGGRGD) [mPEG-bALD20k-HM-1]"
  Subject of test: "carrageenan-induced toe swelling in SD rats"
  Result: 0.42
- Substance: "mPEG-ALD10k-Arg-Gly-Ala-Asp-Arg-Ala-Gly-Gly-Gly-Gly-Arg-Gly-Asp ({mPEG‑ALD 10 kDa}-RGADRAGGGGRGD) [mPEG-ALD10k-HM-1]"
  Subject of test: "carrageenan-induced toe swelling in SD rats"
  Result: 0.36
- Substance: "mPEG-SC10k-Arg-Gly-Ala-Asp-Arg-Ala-Gly-Gly-Gly-Gly-Arg-Gly-Asp ({mPEG‑SC 10 kDa}-RGADRAGGGGRGD) [mPEG-SC10k-HM-1]"
  Subject of test: "carrageenan-induced toe swelling in SD rats"
  Result: 0.37

* * *

Settings: in vivo
Where no end group is shown, it is not given here.
Each item that follows carries a reported T1/2β (half-life).

- Substance: "mPEG-ALD40k-Arg-Gly-Ala-Asp-Arg-Ala-Gly-Gly-Gly-Gly-Arg-Gly-Asp ({mPEG‑ALD 40 kDa}-RGADRAGGGGRGD) [mPEG-ALD40k-HM-1]"
  T1/2β (half-life) [h]: 43.31
- Substance: "mPEG-bALD10k-Arg-Gly-Ala-Asp-Arg-Ala-Gly-Gly-Gly-Gly-Arg-Gly-Asp ({mPEG‑bALD 10 kDa}-RGADRAGGGGRGD) [mPEG-bALD10k-HM-1]"
  T1/2β (half-life) [h]: 16.83
- Substance: "mPEG-bALD5k-Arg-Gly-Ala-Asp-Arg-Ala-Gly-Gly-Gly-Gly-Arg-Gly-Asp ({mPEG‑bALD 5 kDa}-RGADRAGGGGRGD) [mPEG-bALD5k-HM-1]"
  T1/2β (half-life) [h]: 9.35
- Substance: "mPEG2-NHS5k-Arg-Gly-Ala-Asp-Arg-Ala-Gly-Gly-Gly-Gly-Arg-Gly-Asp ({mPEG2‑NHS 5 kDa}-RGADRAGGGGRGD) [mPEG2-NHS5k-HM-1]"
  T1/2β (half-life) [h]: 8.85
- Substance: "mPEG-bALD20k-Arg-Gly-Ala-Asp-Arg-Ala-Gly-Gly-Gly-Gly-Arg-Gly-Asp ({mPEG‑bALD 20 kDa}-RGADRAGGGGRGD) [mPEG-bALD20k-HM-1]"
  T1/2β (half-life) [h]: 22.94

* * *

System: Human Umbilical Vein Endothelial Cells (HUVEC)
Assay: Transwell migration of HUVEC
Format: cell-based
Conditions: 50 μg/mL, 24 h
Where no end group is shown, it is not given here.
Quantity: cell migration number (Mean ± SD)

- Substance: "mPEG-bALD5k-Arg-Gly-Ala-Asp-Arg-Ala-Gly-Gly-Gly-Gly-Arg-Gly-Asp ({mPEG‑bALD 5 kDa}-RGADRAGGGGRGD) [mPEG-bALD5k-HM-1]"
  Quantity: "cell migration number (Mean ± SD)"
  Result: 489.28
- Substance: "mPEG-bALD10k-Arg-Gly-Ala-Asp-Arg-Ala-Gly-Gly-Gly-Gly-Arg-Gly-Asp ({mPEG‑bALD 10 kDa}-RGADRAGGGGRGD) [mPEG-bALD10k-HM-1]"
  Quantity: "cell migration number (Mean ± SD)"
  Result: 589.97
- Substance: "mPEG2-NHS10k-Arg-Gly-Ala-Asp-Arg-Ala-Gly-Gly-Gly-Gly-Arg-Gly-Asp ({mPEG2‑NHS 10 kDa}-RGADRAGGGGRGD) [mPEG2-NHS10k-HM-1]"
  Quantity: "cell migration number (Mean ± SD)"
  Result: 603.97
- Substance: "mPEG-SC10k-Arg-Gly-Ala-Asp-Arg-Ala-Gly-Gly-Gly-Gly-Arg-Gly-Asp ({mPEG‑SC 10 kDa}-RGADRAGGGGRGD) [mPEG-SC10k-HM-1]"
  Quantity: "cell migration number (Mean ± SD)"
  Result: 612.15
- Substance: "mPEG-ALD10k-Arg-Gly-Ala-Asp-Arg-Ala-Gly-Gly-Gly-Gly-Arg-Gly-Asp ({mPEG‑ALD 10 kDa}-RGADRAGGGGRGD) [mPEG-ALD10k-HM-1]"
  Quantity: "cell migration number (Mean ± SD)"
  Result: 604.31
- Substance: "mPEG2-NHS5k-Arg-Gly-Ala-Asp-Arg-Ala-Gly-Gly-Gly-Gly-Arg-Gly-Asp ({mPEG2‑NHS 5 kDa}-RGADRAGGGGRGD) [mPEG2-NHS5k-HM-1]"
  Quantity: "cell migration number (Mean ± SD)"
  Result: 475.01
- Substance: "mPEG-SC5k-Arg-Gly-Ala-Asp-Arg-Ala-Gly-Gly-Gly-Gly-Arg-Gly-Asp ({mPEG‑SC 5 kDa}-RGADRAGGGGRGD) [mPEG-SC5k-HM-1]"
  Quantity: "cell migration number (Mean ± SD)"
  Result: 469.59
- Substance: "mPEG-ALD5k-Arg-Gly-Ala-Asp-Arg-Ala-Gly-Gly-Gly-Gly-Arg-Gly-Asp ({mPEG‑ALD 5 kDa}-RGADRAGGGGRGD) [mPEG-ALD5k-HM-1]"
  Quantity: "cell migration number (Mean ± SD)"
  Result: 415.39
